# target: T1, LINGO-Fc (human, UniProt Q96FE5 40-538, limits assumed)
# T1 construct: not shown: Fc part
# T1 sequence: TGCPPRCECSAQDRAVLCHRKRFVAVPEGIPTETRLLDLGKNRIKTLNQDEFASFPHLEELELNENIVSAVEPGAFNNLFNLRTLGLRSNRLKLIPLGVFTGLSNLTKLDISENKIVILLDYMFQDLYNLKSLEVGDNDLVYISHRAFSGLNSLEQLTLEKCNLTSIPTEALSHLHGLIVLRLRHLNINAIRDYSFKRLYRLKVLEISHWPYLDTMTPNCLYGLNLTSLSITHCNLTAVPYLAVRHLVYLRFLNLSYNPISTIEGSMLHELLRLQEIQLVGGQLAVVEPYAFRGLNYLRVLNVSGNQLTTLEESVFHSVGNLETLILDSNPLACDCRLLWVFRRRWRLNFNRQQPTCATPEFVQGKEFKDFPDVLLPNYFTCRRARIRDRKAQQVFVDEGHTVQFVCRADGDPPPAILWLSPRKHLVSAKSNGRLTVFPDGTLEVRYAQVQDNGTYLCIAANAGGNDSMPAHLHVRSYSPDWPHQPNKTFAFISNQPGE
# assay-text: direct ELISA on LINGO-Fc; half-maximal concentration relative to Li33;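 also: direct binding ELISA on plates coated with LINGO-Fc, concentration giving half of saturating binding, expressed as a ratio to the same value for the comparator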
quantity-measured: ELISA Ratio (ratio)
Give bare numbers, in ratio.

// below: answered binders
Li33 variant I57P (SEQ ID NO:184) (antibody, V domains shown, unchanged chain from WT Li33) VH: EVQLLESGGGLVQPGGSLRLSCAASGFTFSIYPMFWVRQAPGKGLEWVSWIGPSGGPTKYADSVKGRFTISRDNSKNTLYLQMNSLRAEDTATYYCAREGHNDWYFDLWGRGTLVTVSS VL: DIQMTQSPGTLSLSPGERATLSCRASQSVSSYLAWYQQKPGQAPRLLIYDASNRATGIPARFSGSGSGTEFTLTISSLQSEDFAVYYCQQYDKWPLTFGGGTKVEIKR    0.6
Li33 variant W104T (SEQ ID NO:178) (antibody, V domains shown, unchanged chain from WT Li33) VH: EVQLLESGGGLVQPGGSLRLSCAASGFTFSIYPMFWVRQAPGKGLEWVSWIGPSGGITKYADSVKGRFTISRDNSKNTLYLQMNSLRAEDTATYYCAREGHNDTYFDLWGRGTLVTVSS VL: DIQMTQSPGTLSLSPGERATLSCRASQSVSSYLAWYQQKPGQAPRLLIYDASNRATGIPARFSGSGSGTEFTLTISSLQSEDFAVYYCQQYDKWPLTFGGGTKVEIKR    3.5
Li33 variant I57N (SEQ ID NO:161) (antibody, V domains shown, unchanged chain from WT Li33) VH: EVQLLESGGGLVQPGGSLRLSCAASGFTFSIYPMFWVRQAPGKGLEWVSWIGPSGGNTKYADSVKGRFTISRDNSKNTLYLQMNSLRAEDTATYYCAREGHNDWYFDLWGRGTLVTVSS VL: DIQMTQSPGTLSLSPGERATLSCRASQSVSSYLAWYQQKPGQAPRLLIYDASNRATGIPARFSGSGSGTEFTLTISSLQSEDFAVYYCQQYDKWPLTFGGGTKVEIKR    2.9
Li33 variant W94Q (SEQ ID NO:170) (antibody, V domains shown, unchanged chain from WT Li33) VH: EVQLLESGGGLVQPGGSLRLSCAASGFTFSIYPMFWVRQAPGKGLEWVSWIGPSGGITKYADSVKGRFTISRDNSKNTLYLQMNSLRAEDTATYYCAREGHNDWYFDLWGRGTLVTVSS VL: DIQMTQSPGTLSLSPGERATLSCRASQSVSSYLAWYQQKPGQAPRLLIYDASNRATGIPARFSGSGSGTEFTLTISSLQSEDFAVYYCQQYDKQPLTFGGGTKVEIKR    0.9

Batch: ELISA Ratio for all items listed.
1. Li33 variant W104L (SEQ ID NO:177) (antibody, V domains shown, unchanged chain from WT Li33) VH: EVQLLESGGGLVQPGGSLRLSCAASGFTFSIYPMFWVRQAPGKGLEWVSWIGPSGGITKYADSVKGRFTISRDNSKNTLYLQMNSLRAEDTATYYCAREGHNDLYFDLWGRGTLVTVSS VL: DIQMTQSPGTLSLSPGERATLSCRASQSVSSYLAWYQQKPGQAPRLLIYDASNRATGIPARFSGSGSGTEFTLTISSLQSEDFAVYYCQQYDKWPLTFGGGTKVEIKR
2. Li33 variant I57F (SEQ ID NO:164) (antibody, V domains shown, unchanged chain from WT Li33) VH: EVQLLESGGGLVQPGGSLRLSCAASGFTFSIYPMFWVRQAPGKGLEWVSWIGPSGGFTKYADSVKGRFTISRDNSKNTLYLQMNSLRAEDTATYYCAREGHNDWYFDLWGRGTLVTVSS VL: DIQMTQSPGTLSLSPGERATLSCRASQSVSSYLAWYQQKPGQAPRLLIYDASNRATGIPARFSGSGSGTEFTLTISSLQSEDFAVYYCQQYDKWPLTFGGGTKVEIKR
3. Li33 variant I57H (SEQ ID NO:162) (antibody, V domains shown, unchanged chain from WT Li33) VH: EVQLLESGGGLVQPGGSLRLSCAASGFTFSIYPMFWVRQAPGKGLEWVSWIGPSGGHTKYADSVKGRFTISRDNSKNTLYLQMNSLRAEDTATYYCAREGHNDWYFDLWGRGTLVTVSS VL: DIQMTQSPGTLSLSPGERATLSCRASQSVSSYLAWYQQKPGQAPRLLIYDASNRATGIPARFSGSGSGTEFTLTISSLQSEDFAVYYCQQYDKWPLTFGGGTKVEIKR
4. Li33 variant W50L (SEQ ID NO:149) (antibody, V domains shown, unchanged chain from WT Li33) VH: EVQLLESGGGLVQPGGSLRLSCAASGFTFSIYPMFWVRQAPGKGLEWVSLIGPSGGITKYADSVKGRFTISRDNSKNTLYLQMNSLRAEDTATYYCAREGHNDWYFDLWGRGTLVTVSS VL: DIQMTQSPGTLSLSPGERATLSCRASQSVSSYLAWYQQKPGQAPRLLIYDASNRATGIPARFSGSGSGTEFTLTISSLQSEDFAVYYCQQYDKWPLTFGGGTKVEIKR

Found:
1: 2.5; 2: 2; 3: 3.2; 4: 1.8

Answer for every listed entry: what is its ELISA Ratio? The entries follow.
1. Li33 variant P53S (SEQ ID NO:152) (antibody, V domains shown, unchanged chain from WT Li33) VH: EVQLLESGGGLVQPGGSLRLSCAASGFTFSIYPMFWVRQAPGKGLEWVSWIGSSGGITKYADSVKGRFTISRDNSKNTLYLQMNSLRAEDTATYYCAREGHNDWYFDLWGRGTLVTVSS VL: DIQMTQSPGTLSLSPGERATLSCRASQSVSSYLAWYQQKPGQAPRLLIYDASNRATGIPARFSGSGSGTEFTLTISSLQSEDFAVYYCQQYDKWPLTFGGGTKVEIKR
2. Li33 variant I57T (SEQ ID NO:186) (antibody, V domains shown, unchanged chain from WT Li33) VH: EVQLLESGGGLVQPGGSLRLSCAASGFTFSIYPMFWVRQAPGKGLEWVSWIGPSGGTTKYADSVKGRFTISRDNSKNTLYLQMNSLRAEDTATYYCAREGHNDWYFDLWGRGTLVTVSS VL: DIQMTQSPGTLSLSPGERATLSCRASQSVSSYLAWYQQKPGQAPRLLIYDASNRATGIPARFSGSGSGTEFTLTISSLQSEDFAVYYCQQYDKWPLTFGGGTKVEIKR

Found:
1. 2.5
2. 1.1
